This collection of values is drawn from patent US9725442B2.

Provide the reported pIC50 of each item.
# testedSystem: UniProt Q13258
# assayInfo: Human DP1 inhibitory activity in DP1-expressing cell (PGD2-induced cAMP)
# Type: cell-based
# assayConditions: category of cAMP IC50, human DP1 receptor expressing Jurkut cell
pIC50: −log10 of the molar value.

## Input Fill in reported pIC50 for this entry: COCCCOc1ccc(S(=O)(=O)N2C[C@@H](C)[C@@H](n3nc(CC(=O)O)c4ccccc43)C2)cc1
## Output 5.30 to 7.00

## Input Specify pIC50 for CCOc1ccc(S(=O)(=O)N2C[C@@H](C)[C@@H](n3nc(CC(=O)O)c4cc(C)ccc43)C2)cn1 and stop.
## Output > 7.00

## Input In one line, give reported pIC50 of the entry CC(C)Oc1ccc(S(=O)(=O)N2C[C@@H](C)[C@@H](n3nc(CC(=O)O)c4ccc(F)cc43)C2)nc1 .
## Output 5.30 to 7.00

## Input Answer with the recorded pIC50 of CCOc1ccc(S(=O)(=O)N2C[C@@H](C)[C@@H](n3nc(CC(=O)O)c4cc5c(cc43)OCO5)C2)cn1 only.
## Output 5.30 to 7.00

## Input Give a short answer stating reported pIC50 for CC(C)Oc1ccc(S(=O)(=O)N2CC[C@H](n3nc(CC(=O)O)c4ccc(F)cc43)C[C@H]2C)cc1 .
## Output 5.30 to 7.00

## Input Kindly indicate its recorded pIC50. Item: CC(C)Oc1ccc(S(=O)(=O)N2C[C@H](n3nc(CC(=O)O)c4ccccc43)C[C@@H]2Cc2ccccc2)cc1
## Output > 7.00

## Input Complete the entry with pIC50 for CC(C)Oc1ccc(S(=O)(=O)N2C[C@H](n3nc(CC(=O)O)c4ccc(F)cc43)C[C@H]2C(=O)N(C)C)cc1
## Output 5.30 to 7.00

###

# testedSystem: Human DP1 receptor (Homo sapiens (Human), UniProt Q13258)
# Sequence (Q13258 whole entry): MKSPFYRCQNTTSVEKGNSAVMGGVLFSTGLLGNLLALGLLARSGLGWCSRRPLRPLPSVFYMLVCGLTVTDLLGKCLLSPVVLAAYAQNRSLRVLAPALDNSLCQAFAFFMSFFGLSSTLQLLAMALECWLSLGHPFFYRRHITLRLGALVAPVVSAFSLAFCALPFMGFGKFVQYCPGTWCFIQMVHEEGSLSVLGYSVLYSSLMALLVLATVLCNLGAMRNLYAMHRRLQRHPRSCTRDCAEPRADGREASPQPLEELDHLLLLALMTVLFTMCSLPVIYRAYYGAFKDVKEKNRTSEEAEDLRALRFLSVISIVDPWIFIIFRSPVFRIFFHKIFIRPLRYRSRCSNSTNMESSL
# assayInfo: Human DP1 inhibitory activity in DP1-expressing cell (PGD2-induced cAMP)
# Type: cell-based
# assayConditions: category of cAMP IC50, human DP1 receptor expressing Jurkut cell
pIC50: −log10 of the molar value.
valueKind: pIC50

## Input Kindly indicate its recorded pIC50. Item: CCOc1ccc(S(=O)(=O)N2C[C@@H](C)[C@@H](n3nc(CC(=O)O)c4ccccc43)C2)nc1
## Output 5.30 to 7.00

## Input Fill in pIC50 for record CCOc1ccc(S(=O)(=O)N2C[C@H](F)[C@@H](n3nc(CC(=O)O)c4ccccc43)C2)cc1
## Output 5.30 to 7.00

## Input Identify measured pIC50 associated with CCOc1ccc(S(=O)(=O)N2C[C@H](n3nc(CC(=O)O)c4ccccc43)C[C@@H]2C#N)cc1
## Output > 7.00

## Input Report pIC50, nothing else, for this compound: CCOc1ccc(S(=O)(=O)N2C[C@H](n3nc(CC(=O)O)c4ccccc43)C[C@@H]2C(N)=O)cc1
## Output 5.30 to 7.00

## Input Look up and report measured pIC50 for this entry: Cc1cccn(C[C@H]2C[C@@H](n3nc(CC(=O)O)c4ccc(F)cc43)CN2S(=O)(=O)c2ccc(OC(C)C)cc2)c1=O
## Output 5.30 to 7.00

## Input For COc1ccc(S(=O)(=O)N2C[C@H](n3nc(CC(=O)O)c4ccccc43)[C@@](C)(F)C2)cn1 (racemic) , write its pIC50.
## Output 5.30 to 7.00

## Input Output measured pIC50 for this item: COc1ccc(S(=O)(=O)N2C[C@@H](C)[C@@H](n3nc(CC(=O)O)c4ccc(F)cc43)C2)c(F)c1
## Output > 7.00

###

# testedSystem: CRTH2 (Homo sapiens (Human), UniProt Q9Y5Y4)
# Sequence (Q9Y5Y4 whole entry): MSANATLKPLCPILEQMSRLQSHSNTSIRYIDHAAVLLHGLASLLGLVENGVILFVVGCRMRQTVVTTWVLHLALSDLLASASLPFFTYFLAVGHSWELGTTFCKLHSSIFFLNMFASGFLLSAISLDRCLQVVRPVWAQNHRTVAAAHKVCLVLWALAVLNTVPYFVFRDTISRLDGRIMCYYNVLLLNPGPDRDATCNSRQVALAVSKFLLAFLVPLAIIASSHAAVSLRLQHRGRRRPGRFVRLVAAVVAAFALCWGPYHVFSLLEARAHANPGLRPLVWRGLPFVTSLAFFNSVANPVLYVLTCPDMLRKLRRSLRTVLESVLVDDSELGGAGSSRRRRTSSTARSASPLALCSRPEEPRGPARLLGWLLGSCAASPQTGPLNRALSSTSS
# assayInfo: CRTH2 receptor binding inhibitory activity ([3H]-PGD2 displacement, membranes of CRTH2-expressing K562 cell)
# assayConditions: CRTH2 receptor binding, [3H]-PGD2 displacement, membrane of CRTH2-expressing K562 cell; categorized AAAA/AAA; read-out: Ki
Answer each item with its documented Ki.

## Input Read the entry C[C@@H]1CN(S(=O)(=O)c2ccc(OCF)cc2)C[C@@H]1n1nc(CC(=O)O)c2ccccc21 and write its reported Ki.
## Output < 100 nM

## Input Give the reported value of Ki for this record: CC(C)Oc1ccc(S(=O)(=O)N2CC[C@H](n3nc(CC(=O)O)c4ccc(F)cc43)C[C@@H]2C)cc1
## Output 100 to 5000 nM

## Input # return recorded Ki for entry C[C@@H]1CN(S(=O)(=O)c2ccc(OC(F)F)cc2)C[C@@H]1n1nc(CC(=O)O)c2ccccc21
## Output < 100 nM

## Input # return recorded Ki for input CC(C)Oc1ccc(S(=O)(=O)N2C[C@@H](C)[C@@H](n3nc(CC(=O)O)c4ccc(F)cc43)C2)cn1 [Compound I-57]
## Output < 100 nM

## Input Please report the measured Ki for CCOc1ccc(S(=O)(=O)N2C[C@H](n3nc(CC(=O)O)c4ccccc43)[C@@H](C)[C@@H]2C#N)cc1
## Output < 100 nM

## Input Supply reported Ki belonging to this compound: CC(C)Oc1ccc(S(=O)(=O)N2C[C@H](n3nc(CC(=O)O)c4ccc(F)cc43)C[C@H]2COc2nc3ccccc3s2)cc1
## Output < 100 nM

## Input Output measured Ki for this item: CCOc1ccc(S(=O)(=O)N2C[C@@H](C)[C@@H](n3nc(CC(=O)O)c4ccccc43)C2)c(CCCNC(C)=O)c1
## Output < 100 nM

## Input Return the recorded Ki value; entry: CC(C)OCCOc1ccc(S(=O)(=O)N2C[C@@H](C)[C@@H](n3nc(CC(=O)O)c4ccccc43)C2)cc1
## Output < 100 nM

## Input Supply measured Ki of CC(C)Oc1ccc(S(=O)(=O)N2CC=C(n3nc(CC(=O)O)c4ccc(F)cc43)C2)cc1 in your reply.
## Output 100 to 5000 nM

## Input Determine its reported Ki: C[C@@H]1CN(S(=O)(=O)c2cc3ccccc3s2)C[C@@H]1n1nc(CC(=O)O)c2ccccc21
## Output < 100 nM

## Input Please look at this compound and report its Ki: CCOc1ncc(S(=O)(=O)N2C[C@@H](C)[C@@H](n3nc(CC(=O)O)c4ccc(F)cc43)C2)s1
## Output < 100 nM

## Input Using known records, supply Ki for CCOc1ccc(S(=O)(=O)N2C[C@@H](C)[C@@H](n3nc(CC(=O)O)c4c(F)cccc43)C2)cc1
## Output < 100 nM

## Input Kindly indicate its recorded Ki. Item: CCCOC[C@H]1C[C@@H](n2nc(CC(=O)O)c3ccc(F)cc32)CN1S(=O)(=O)c1ccc(OC(C)C)cc1
## Output 100 to 5000 nM

## Input Name the recorded Ki of the item CC(C)Oc1ccc(S(=O)(=O)N2CC[C@H](n3nc(CC(=O)O)c4ccc(F)cc43)C[C@H]2C)cc1 in your answer.
## Output 100 to 5000 nM

###

# testedSystem: DP receptor (Homo sapiens (Human))
# Sequence (Q13258 whole entry): as the sequence (Q13258 whole entry) above
# assayInfo: DP inhibitory activity in human platelets (PGD2-induced cAMP increase in platelet rich plasma, HTRF)
# assayConditions: IC50 of PGD2 (300 nM)-induced cAMP increase, read-out: PRP
valueKind: IC50 (µM)
Numbers only; they are read as µM.

## Input Enter measured IC50, system DP receptor (Homo sapiens (Human)), for the molecule shown: CCOc1ccc(S(=O)(=O)N2C[C@@H](C)[C@@H](n3nc(CC(=O)O)c4ccccc43)C2)s1 [Compound I-177]
## Output 0.044

## Input Give IC50 for CC(C)Oc1ccc(S(=O)(=O)N2C[C@@H](C)[C@@H](n3nc(CC(=O)O)c4ccc(C(F)(F)F)cc43)C2)cn1 [Compound I-131] tested on DP receptor (Homo sapiens (Human)).
## Output 0.19

## Input Provide DP receptor (Homo sapiens (Human)) IC50 reading for CC(C)Oc1ccc(S(=O)(=O)N2C[C@@H](C)[C@@H](n3cc(CC(=O)O)c4ccc(F)cc43)C2)cc1 [Compound I-144] .
## Output 0.082

## Input Provide the reported IC50 (system: DP receptor (Homo sapiens (Human))) for CC(C)Oc1ccc(S(=O)(=O)N2C[C@@H](C)[C@@H](n3nc(CC(=O)O)c4ccc(F)cc43)C2)cn1 [Compound I-123]
## Output 0.12

###

For each record, write down the corresponding Ki.
# testedSystem: CRTH2 (Homo sapiens (Human))
# assayInfo: CRTH2 receptor binding inhibitory activity ([3H]-PGD2 displacement, membranes of CRTH2-expressing K562 cell)
# assayConditions: CRTH2 receptor binding, [3H]-PGD2 displacement, membrane of CRTH2-expressing K562 cell; categorized AAAA/AAA; read-out: Ki

## Input // fetch Ki given entry CCOc1ccc(S(=O)(=O)N2C[C@@H](C)[C@@H](n3nc(CC(=O)O)c4ccc(Cl)cc43)C2)cn1
## Output < 100 nM

## Input Return the recorded Ki value; entry: CC(C)Oc1ccc(S(=O)(=O)N2C[C@@H](C)[C@@H](n3nc(CC(=O)O)c4cc5c(cc43)OCO5)C2)cc1
## Output < 100 nM

## Input Report measured Ki; entry is CC(C)Oc1ccc(S(=O)(=O)N2C[C@H](n3nc(CC(=O)O)c4ccc(F)cc43)C[C@@H]2COc2cccc(F)c2)cc1
## Output 100 to 5000 nM

## Input Specify measured Ki for C#Cc1cc(OCC)ccc1S(=O)(=O)N1C[C@@H](C)[C@@H](n2nc(CC(=O)O)c3ccccc32)C1 .
## Output < 100 nM

## Input Indicate its recorded Ki; the molecule in question is CC(C)Oc1ccc(S(=O)(=O)N2C[C@@H](CCF)[C@@H](n3nc(CC(=O)O)c4ccc(F)cc43)C2)cc1
## Output < 100 nM

## Input Please give measured Ki of the following entry: CCOc1ccc(S(=O)(=O)N2C[C@@H](C)[C@@H](n3nc(CC(=O)O)c4ccccc43)C2)c(CCO)c1
## Output < 100 nM

## Input Consider the molecule C=C[C@@H]1CN(S(=O)(=O)c2ccc(OC(C)C)cc2)C[C@@H]1n1nc(CC(=O)O)c2ccc(F)cc21 . State its measured Ki.
## Output < 100 nM

## Input Retrieve Ki measured for CC(C)Oc1ccc(S(=O)(=O)N2C[C@H](n3nc(CC(=O)O)c4ccc(F)cc43)C[C@H]2C(=O)N(C)C)cc1 and print it.
## Output 100 to 5000 nM

## Input Give Ki for the following molecule: CC(C)Oc1ccc(S(=O)(=O)N2C[C@H](n3nc(CC(=O)O)c4ccc(F)cc43)C[C@H]2c2ccccn2)cc1 [Compound I-350]
## Output < 100 nM

## Input Given the molecule C[C@@H]1CN(S(=O)(=O)C2CCCCC2)C[C@@H]1n1nc(CC(=O)O)c2ccccc21 , write its reported Ki.
## Output 100 to 5000 nM

## Input // fetch Ki given entry C[C@@H]1CN(S(=O)(=O)c2cccc(Cl)c2)C[C@@H]1n1nc(CC(=O)O)c2ccc(F)cc21
## Output < 100 nM

## Input Return value of Ki for input CC(C)Oc1ccc(S(=O)(=O)N2C[C@@H](C)[C@@H](n3nc(Cc4nnn[nH]4)c4ccc(F)cc43)C2)cc1 , no commentary.
## Output 100 to 5000 nM

## Input Entry C[C@@H]1CN(S(=O)(=O)c2ccc(OCCOc3ccccc3)cc2)C[C@@H]1n1nc(CC(=O)O)c2ccccc21 needs its Ki filled in; supply it.
## Output < 100 nM

## Input For C[C@@H]1CN(S(=O)(=O)c2ccc(OC(F)(F)F)cc2)C[C@@H]1n1nc(CC(=O)O)c2ccc(Cl)cc21 , write its Ki.
## Output < 100 nM
